# Test system: Danio rerio larvae (5 dpf)
# METHOD: excitability to 1-s acoustic pulses, difference vs DMSO (percentage points (treated minus DMSO)); higher = more of the behaviour than the DMSO vehicle control
# CONDITION PARAMETERS: 10 µM; exposure time: 3 h pre-incubation + 3 h imaging
ASSAY METRIC: excitability to 1-s acoustic pulses
Numbers only.

Before answering, review these 6 worked examples.
>>> value("Nc1ncn([C@H]2C[C@H](O)[C@@H](CO)O2)c(=O)n1")
6.23
>>> value("COc1cc(N)c(Cl)cc1C(=O)NC1CCN(CCCOc2ccc(F)cc2)CC1OC (stereo not drawn) [Cisapride]")
16.4
>>> value("C=C1[C@H](CO)[C@@H](O)C[C@@H]1n1cnc2c(=O)[nH]c(N)nc21")
-3.18
>>> value("CC(C)N(CCCCOCC(=O)NS(C)(=O)=O)c1cnc(-c2ccccc2)c(-c2ccccc2)n1")
5.77
>>> value("NS(=O)(=O)c1cc(C(=O)O)c(NCc2ccco2)cc1Cl [Furosemide]")
0.211
>>> value("CC(C)n1c(/C=C/C(O)CC(O)CC(=O)O)c(-c2ccc(F)cc2)c2ccccc21 (stereo not drawn) [Fluvastatin sodium]")
3.77

Your task in this section: give excitability to 1-s acoustic pulses for each listed record.
1. C[C@H](Cc1cc2c(c(C(N)=O)c1)N(CCCO)CC2)NCCOc1ccccc1OCC(F)(F)F
2. C=CC(=O)N1CCC[C@@H](n2nc(-c3ccc(Oc4ccccc4)cc3)c3c(N)ncnc32)C1

Solution:
1. 21.7
2. -2.71
